# Tested on: LNCaP
# Experimental Protocol: Antiproliferative activity against human LNCAP cells assessed as T/C value at 1 uM incubated for 96 hrs by propidium iodide based 2D monolayer assay
# Format: functional
Attribute Measured: T/C

CC(O)(COc1cccc(S(F)(F)(F)(F)F)c1)C(=O)Nc1ccc([N+](=O)[O-])c(C(F)(F)F)c1 (racemic) | 84 - 93%
CC(O)(COc1ccc(C(F)(F)C(F)(F)F)cc1)C(=O)Nc1cc(C(F)(F)F)cc(C(F)(F)F)c1 (racemic) | 93%
CC1(C)C(=O)N(c2ccc(C#N)cc2C(F)(F)F)C(=S)N1c1cccc(S(F)(F)(F)(F)F)c1 | 79%
CC(O)(COc1ccccc1C(F)(F)F)C(=O)Nc1ccc(S(F)(F)(F)(F)F)cc1 (racemic) | 25 - 60%
CC(O)(COc1cc(C(F)(F)F)cc(C(F)(F)F)c1)C(=O)Nc1ccc(S(F)(F)(F)(F)F)cc1 (racemic) | 90%
CC(O)(CSc1cc(C(F)(F)F)cc(C(F)(F)F)c1)C(=O)Nc1cccc(C(F)(F)C(F)(F)F)c1 (racemic) | 107%
CNC(=O)c1ccc(N2C(=S)N(c3ccc(C#N)c(C(F)(F)F)c3)C(=O)C2(C)C)cc1F [ENZALUTAMIDE] | 65%

Record lookup: for LNCaP, what T/C belongs to CC(O)(COc1cccc(S(F)(F)(F)(F)F)c1)C(=O)Nc1cc(C(F)(F)F)cc(C(F)(F)F)c1 (racemic) ?
93%

----------
# Experimental Protocol: Protein binding in plasma (unknown origin) at 5 uM by LC-MS/MS analysis
# Assay type: ADME, cell-free
# Condition: read-out: PPB (converted)
Attribute Measured: fraction unbound at 5 µM
One number for each entry.

CC(O)(COc1ccc(S(F)(F)(F)(F)F)cc1)C(=O)Nc1cc(C(F)(F)F)cc(C(F)(F)F)c1 (racemic) | 0.091

For every listed record, write down its fraction unbound at 5 µM.
1. CC(O)(COc1ccccc1C(F)(F)F)C(=O)Nc1ccc(S(F)(F)(F)(F)F)cc1 (racemic)
2. CC(O)(COc1cccc(S(F)(F)(F)(F)F)c1)C(=O)Nc1ccc([N+](=O)[O-])c(C(F)(F)F)c1 (racemic)

1: 0.014; 2: 0.015

----------
# System: LNCaP
# Experimental Protocol: Antiproliferative activity against human LNCAP cells assessed as T/C value at 1 uM incubated for 96 hrs by propidium iodide based 2D monolayer assay
# Type: functional
Attribute Measured: T/C
Express your answer as a number followed by its unit.

Examples with answers:
CC(O)(COc1ccc(S(F)(F)(F)(F)F)cc1)C(=O)Nc1cc(C(F)(F)F)cc(C(F)(F)F)c1 (racemic) | 89%
CC(O)(COc1cc(C(F)(F)F)cc(C(F)(F)F)c1)C(=O)Nc1cccc(S(F)(F)(F)(F)F)c1 (racemic) | 101%
CC1(C)C(=O)N(c2ccc(C#N)cc2C(F)(F)F)C(=S)N1c1ccc(S(F)(F)(F)(F)F)cc1 | 66%

Requested field: T/C. Item: `CC1(C)C(=O)N(c2cccc(S(F)(F)(F)(F)F)c2)C(=S)N1c1cccc(C(F)(F)F)c1`
74%

----------
# Test system: CWR22R
# Experimental Protocol: Antiproliferative activity against human 22Rv1 cells assessed as T/C value at 1 x 10^2 uM incubated for 96 hrs by propidium iodide based 2D monolayer assay
# Assay type: functional
Attribute Measured: T/C (%)
Numbers only, in %.

CC1(C)C(=O)N(c2ccc(C#N)cc2C(F)(F)F)C(=S)N1c1cccc(S(F)(F)(F)(F)F)c1 | 51

Your task in this section: give T/C for each listed record.
1. CC(O)(COc1ccc(S(F)(F)(F)(F)F)cc1)C(=O)Nc1cc(C(F)(F)F)cc(C(F)(F)F)c1 (racemic)
2. CC1(C)C(=O)N(c2ccc(C#N)cc2C(F)(F)F)C(=S)N1c1ccc(S(F)(F)(F)(F)F)cc1
3. CNC(=O)c1ccc(N2C(=S)N(c3ccc(C#N)c(C(F)(F)F)c3)C(=O)C2(C)C)cc1F [ENZALUTAMIDE]
4. CC1(C)C(=O)N(c2cccc(S(F)(F)(F)(F)F)c2)C(=S)N1c1cccc(C(F)(F)F)c1
5. CC(O)(COc1cccc(S(F)(F)(F)(F)F)c1)C(=O)Nc1cc(C(F)(F)F)cc(C(F)(F)F)c1 (racemic)
6. CC(O)(COc1cc(C(F)(F)F)cc(C(F)(F)F)c1)C(=O)Nc1ccc(S(F)(F)(F)(F)F)cc1 (racemic)
7. CC(O)(COc1cc(C(F)(F)F)cc(C(F)(F)F)c1)C(=O)Nc1cccc(S(F)(F)(F)(F)F)c1 (racemic)

1. 4
2. 12
3. 13
4. 55
5. 2
6. 4
7. 2

Value sought for every listed compound: T/C.
1. CC(O)(COc1ccc(C(F)(F)C(F)(F)F)cc1)C(=O)Nc1cc(C(F)(F)F)cc(C(F)(F)F)c1 (racemic)
2. CC(O)(CSc1cc(C(F)(F)F)cc(C(F)(F)F)c1)C(=O)Nc1cccc(C(F)(F)C(F)(F)F)c1 (racemic)

1: 3; 2: 5

----------
# Tested on: CWR22R
# Experimental Protocol: Antiproliferative activity against human 22Rv1 cells assessed as T/C value at 3.2 x 10^-2 uM incubated for 96 hrs by propidium iodide based 2D monolayer assay
# Assay type: functional
Attribute Measured: T/C (%)
Answers are plain numbers, in %.

// worked examples, T/C included
CC(O)(COc1ccc(S(F)(F)(F)(F)F)cc1)C(=O)Nc1cc(C(F)(F)F)cc(C(F)(F)F)c1 (racemic) | 105
CC(O)(COc1cc(C(F)(F)F)cc(C(F)(F)F)c1)C(=O)Nc1cccc(S(F)(F)(F)(F)F)c1 (racemic) | 110
CC1(C)C(=O)N(c2cccc(S(F)(F)(F)(F)F)c2)C(=S)N1c1cccc(C(F)(F)F)c1 | 96
CC1(C)C(=O)N(c2ccc(C#N)cc2C(F)(F)F)C(=S)N1c1cccc(S(F)(F)(F)(F)F)c1 | 107
CC(O)(COc1cccc(S(F)(F)(F)(F)F)c1)C(=O)Nc1cc(C(F)(F)F)cc(C(F)(F)F)c1 (racemic) | 109
CC(O)(COc1ccc(C(F)(F)C(F)(F)F)cc1)C(=O)Nc1cc(C(F)(F)F)cc(C(F)(F)F)c1 (racemic) | 115
CC1(C)C(=O)N(c2ccc(C#N)cc2C(F)(F)F)C(=S)N1c1ccc(S(F)(F)(F)(F)F)cc1 | 104
CC(O)(COc1cc(C(F)(F)F)cc(C(F)(F)F)c1)C(=O)Nc1ccc(S(F)(F)(F)(F)F)cc1 (racemic) | 99
CC(O)(CSc1cc(C(F)(F)F)cc(C(F)(F)F)c1)C(=O)Nc1cccc(C(F)(F)C(F)(F)F)c1 (racemic) | 112

Look up T/C for this compound: CNC(=O)c1ccc(N2C(=S)N(c3ccc(C#N)c(C(F)(F)F)c3)C(=O)C2(C)C)cc1F [ENZALUTAMIDE]
99

----------
# Test system: LNCaP
# Experimental Protocol: Antiproliferative activity against human LNCAP cells assessed as reduction in cell growth incubated for 96 hrs by propidium iodide based 2D monolayer assay
# Format: functional
So I've got a bunch of molecules here, and I need their pIC50 values.
Answers are plain numbers, as −log10 of the molar value.

CC(O)(CSc1cccc(S(F)(F)(F)(F)F)c1)C(=O)Nc1cccc(S(F)(F)(F)(F)F)c1 (racemic) | 4.89

Take each entry in turn and give its pIC50.
1. CC(O)(CSc1ccc(OC(F)(F)F)cc1)C(=O)Nc1cccc(S(F)(F)(F)(F)F)c1 (racemic)
2. CC(O)(COc1ccc(C#N)c(F)c1)C(=O)Nc1cccc(S(F)(F)(F)(F)F)c1 (racemic)

4.99
4.08

----------
# Tested on: CWR22R
# Experimental Protocol: Antiproliferative activity against human 22Rv1 cells assessed as T/C value at 3.2 x 10^-1 uM incubated for 96 hrs by propidium iodide based 2D monolayer assay
# Format: functional
Attribute Measured: T/C (%)
Answers are plain numbers, in %.

CC(O)(COc1cc(C(F)(F)F)cc(C(F)(F)F)c1)C(=O)Nc1cccc(S(F)(F)(F)(F)F)c1 (racemic) | 105

Your task in this section: give T/C for each listed record.
1. CC1(C)C(=O)N(c2ccc(C#N)cc2C(F)(F)F)C(=S)N1c1ccc(S(F)(F)(F)(F)F)cc1
2. CC(O)(COc1ccc(C(F)(F)C(F)(F)F)cc1)C(=O)Nc1cc(C(F)(F)F)cc(C(F)(F)F)c1 (racemic)
3. CC(O)(COc1ccc(S(F)(F)(F)(F)F)cc1)C(=O)Nc1cc(C(F)(F)F)cc(C(F)(F)F)c1 (racemic)
4. CC(O)(COc1cc(C(F)(F)F)cc(C(F)(F)F)c1)C(=O)Nc1ccc(S(F)(F)(F)(F)F)cc1 (racemic)
5. CC(O)(CSc1cc(C(F)(F)F)cc(C(F)(F)F)c1)C(=O)Nc1cccc(C(F)(F)C(F)(F)F)c1 (racemic)

101
108
110
109
107

Field: T/C. Fill in for each record below.
1. CC1(C)C(=O)N(c2cccc(S(F)(F)(F)(F)F)c2)C(=S)N1c1cccc(C(F)(F)F)c1
2. CC1(C)C(=O)N(c2ccc(C#N)cc2C(F)(F)F)C(=S)N1c1cccc(S(F)(F)(F)(F)F)c1
3. CC(O)(COc1cccc(S(F)(F)(F)(F)F)c1)C(=O)Nc1cc(C(F)(F)F)cc(C(F)(F)F)c1 (racemic)
4. CNC(=O)c1ccc(N2C(=S)N(c3ccc(C#N)c(C(F)(F)F)c3)C(=O)C2(C)C)cc1F [ENZALUTAMIDE]

1. 98
2. 101
3. 101
4. 96
